method-notes: qHTS Assay for Identifying Gametocytocidal Compounds (AID 743244);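 note: % is set by controls: 0 for no effect and ±100 for the full control effect; actives lower the fluorescent signal which means gametocytes are killed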
run-conditions: P. falciparum 3D7 stage III-V gametocytes, alamarBlue, 72 h; active compounds read low
Inconclusive results are not listed.
assay-metric: max response (%)

>>> measured_result("Clc1ccc(N2CC3CCC(C2)N3)nn1")
23.5
>>> measured_result("Oc1cc(Cl)c(Cl)cc1Cl")
4.45
>>> measured_result("NC(N)=NOCC[C@H](N)C(=O)O")
-9
>>> measured_result("C=CCN1CC[C@]23c4c5ccc(O)c4O[C@H]2[C@@H](O)C=C[C@H]3[C@H]1C5")
2.17
>>> measured_result("CCC1(c2ccccc2)C(=O)NC(=O)N(C(=O)c2ccccc2)C1=O (stereo unspecified)")
-4.65
>>> measured_result("C/C(O)=C(\\C#N)C(=O)Nc1cc(Br)ccc1Br")
-6.48
>>> measured_result("CC1(C(=O)O)C2CCC(O2)C1(C)C(=O)O (stereo unspecified)")
-9.57
>>> measured_result("CNC(=O)OCC[N+](C)(C)C")
-1.58
>>> measured_result("CC(N)Cc1ccc(O)cc1 (stereo unspecified)")
1.03
>>> measured_result("COc1ccc2c3c1O[C@H]1[C@@H](O)C=C[C@H]4[C@@H](C2)NCC[C@@]341")
-9
>>> measured_result("CC(=O)[C@H]1CC[C@H]2[C@@H]3CC[C@@H]4C[C@H](O)CC[C@]4(C)[C@H]3CC[C@]12C")
-3.94
>>> measured_result("S=C(S)N1CCNCC1")
-5.89
>>> measured_result("O=C1OC2(c3cc(Br)c(O)cc3Oc3c2cc(Br)c(O)[c]3[Hg])c2ccccc21 (stereo unspecified)")
-1.46
>>> measured_result("C=CCC1(C(C)CCC)C(=O)N=C(S)NC1=O (stereo unspecified)")
-3.05
>>> measured_result("C[N+]1(C)CCc2cc3c(cc2[C@H]1[C@@H]1OC(=O)c2c1ccc1c2OCO1)OCO3")
19.2
>>> measured_result("OC[C@@H](O)[C@H]1O[C@@H]2O[C@H](C(Cl)(Cl)Cl)O[C@@H]2[C@H]1O")
13.7
>>> measured_result("C=CCN=C=S")
-13.2
>>> measured_result("C#CC(C)(O)CC (stereo unspecified)")
4.2
>>> measured_result("COc1cc(CC(C)N)c(OC)cc1I (stereo unspecified)")
3.52
>>> measured_result("N#CCCN")
15.8
>>> measured_result("CC(C)(C)c1o[nH]c(=O)c1CC(N)C(=O)O (stereo unspecified)")
2.4
>>> measured_result("CN1CCC(c2c[nH]c3ccc(O)cc23)CC1")
11.9
>>> measured_result("COc1cc2c(cc1OC)[C@@]13CCN4CC5=CCO[C@H]6CC(=O)N2[C@H]1[C@H]6[C@H]5C[C@H]43")
18.6
>>> measured_result("NC(=O)CI")
8.04
>>> measured_result("COc1ccc2[nH]c3c(c2c1)CCNC3")
-9.37
>>> measured_result("C[N+]1(C)C2CCC1CC(OC(=O)c1c[nH]c3ccccc13)C2 (stereo unspecified)")
-2.89
>>> measured_result("Nc1ccc(CCN2CCN(c3cccc(C(F)(F)F)c3)CC2)cc1")
14.5
>>> measured_result("CCCC(C)(COC(N)=O)COC(=O)NC1CC1 (stereo unspecified)")
6.87
>>> measured_result("ClC1=C(Cl)[C@]2(Cl)[C@@H]3[C@H]4C[C@H]([C@@H]5O[C@H]45)[C@@H]3[C@@]1(Cl)C2(Cl)Cl")
19.8
>>> measured_result("CCCN(CCC)CCc1ccc(O)c(O)c1")
12.9
>>> measured_result("O=C/C=C/c1ccccc1")
4.39
>>> measured_result("[2H]C([2H])([2H])[C@H](N)Cc1ccccc1")
14.3
>>> measured_result("CCC(C)(S(=O)(=O)CC)S(=O)(=O)CC")
7.4
>>> measured_result("C[C@]12CCC(=O)C[C@@H]1CC[C@@H]1[C@@H]2CC[C@]2(C)[C@@H](O)CC[C@@H]12")
17.9
>>> measured_result("NNC(=O)c1ccc(O)cc1")
7.91
>>> measured_result("CCCCCCCCOC(=O)c1ccccc1C(=O)OCCCCCCCC")
-1.95

====

method-notes: qHTS Validation Assay to Find Inhibitors of Chronic Active B-Cell Receptor Signaling (AID 485345);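 note: 0% = untreated basal cells and 100% = 10 µM MG-132 proteasome inhibitor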
run-conditions: ABC-DLBCL cells, chronic BCR signaling reporter, CBG luciferase; series mostly up to 46.1 µM
Inconclusive results are not listed. Active and inactive are the calls of the source. Calls come from the whole dose curve; as a rule, active = well fitted curve in the direction sought with a large enough effect in the main read-out, with a control signal flat (not every such curve was filed as active); inconclusive = small, poorly fitted or top-dose-only effect, or effect the other way, or a change in a side signal; inactive = no such curve, though single readings can be large or run the other way.
assay-metric: outcome

>>> measured_result("C[C@H](N)Cc1cccc(C(F)(F)F)c1")
"inactive"
>>> measured_result("CCCN(CCC)CCc1ccc(O)c(O)c1")
"inactive"
>>> measured_result("CC(N)[C@H](O)c1ccc(O)c(O)c1 (stereo not given in full)")
"inactive"
>>> measured_result("CCN1C[C@@]2(COC)C3[C@@H](OC)C4[C@@H]1C3([C@@H]1C[C@]3(O)[C@H](OC(=O)c5ccccc5)[C@@H]1[C@]4(OC(C)=O)[C@@H](O)[C@@H]3OC)[C@H](OC)C[C@H]2O")
"inactive"
>>> measured_result("COc1ccc(CNC(=O)/C=C/c2ccc3[nH]cc(CCN(C)C)c3c2)cc1")
"inactive"

====

method-notes: Drug repurposing screens with cells derived from glioblastoma tumor samples (AID 1345199); note: % is set by controls: 0 for no effect and ±100 for the full control effect; nearly all actives have a fitted effect of over 40% in size
run-conditions: GBM patient neurospheres viability, ATP luminescence, 48 h; at 45.9 µM (top of the series); tumour line D
Records with an inconclusive call do not appear.
Catalogue of activity, negative = cell killing values
assay-metric: activity, negative = cell killing (%)

>>> measured_result("CCC(C)(S(=O)(=O)CC)S(=O)(=O)CC")
-21.6
>>> measured_result("CCOC(=O)c1ccccc1C(=O)OCC")
-11.3
>>> measured_result("C[N+]1([O-])[C@@H]2CC[C@H]1CC(OC(=O)C(CO)c1ccccc1)C2 (some centres not stated)")
8.25
>>> measured_result("Clc1ccc(C2(Cn3cncn3)OCCO2)c(Cl)c1")
0.916
>>> measured_result("O=C(NC(=O)c1c(F)cccc1F)Nc1ccc(Cl)c(Oc2ncc(C(F)(F)F)cc2Cl)c1")
-21.9
>>> measured_result("COc1ccc(OC)c([C@@H](O)[C@H](C)N)c1")
-1.31
>>> measured_result("Oc1ccc2c3c1O[C@H]1[C@@H](O)CC[C@@]4(O)[C@@H](C2)N(CC2CCC2)CC[C@]314")
-17.2
>>> measured_result("C[C@@H]1[C@@H]2Cc3ccc(O)cc3[C@@]1(C)CCN2CC1CC1")
-18.9
>>> measured_result("CC1(C)[C@H](C=C(Cl)Cl)[C@H]1C(=O)OCc1c(F)c(F)cc(F)c1F")
-11.5
>>> measured_result("C[C@]12CC[C@H]3[C@@H](CCC4=C(Cl)C(=O)CC[C@@]43C)[C@@H]1CC[C@@H]2O")
-29.9
>>> measured_result("NCC(O)c1cccc(O)c1 (configuration not stated)")
-16.5
>>> measured_result("O=C1CCCCC1CN1CCCCC1 (configuration not stated)")
4.04
>>> measured_result("CC(=O)O[C@H]1CC[C@H]2[C@@H]3CCC4=CC(=O)CCC4=C3C=C[C@]12C")
-6.7
>>> measured_result("Oc1cc(Cl)c(Cl)cc1Cl")
-21.4
>>> measured_result("CCC1(CC)C(=O)NC(=O)N(C)C1=O")
-23.6
>>> measured_result("CCC1(c2ccccc2)C(=O)NC(=O)NC1=O")
2.64
>>> measured_result("CC(C)CCON=O")
-3.58
>>> measured_result("O=C1CCO1")
6.37
>>> measured_result("CC(Cc1ccccc1)NC=O (configuration not stated)")
2.52
>>> measured_result("C[N+]1(C)CCCCC1COC(=O)C(O)(c1ccccc1)c1ccccc1 (configuration not stated)")
-3.36
>>> measured_result("O=[N+]([O-])c1ccccc1")
-6.09
>>> measured_result("CCOC(=O)/C=C(C)/C=C/C[C@@H](C)CCCC(C)C")
3.89

====

experimental-system: Bile acid receptor (Homo sapiens)
method-notes: qHTS assay for small molecule agonists of farnesoid X receptor signaling (AID 588527);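 note: 0% = vehicle basal and 100% = reference agonist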
run-conditions: HEK293T FXR-UAS-bla, beta-lactamase ratio, 16 h; active compounds read high
Results filed as inconclusive are left out.
assay-metric: activation (%)

>>> measured_result("O=C(O)c1cc[c]([Hg][Cl])cc1")
1.46
>>> measured_result("CCCCCl")
1.93
>>> measured_result("CCCCCCCCOC(=O)c1ccccc1C(=O)OCCCCCCCC")
1.69
>>> measured_result("O=C1CCO1")
0.979
>>> measured_result("O=[N+]([O-])c1ccc(F)c([N+](=O)[O-])c1")
-1.56

====

Tested on: CP291
method-notes: qHTS profiling for inhibitors of Plasmodium falciparum proliferation (AID 504749); note: nearly all actives have a fitted effect of over 60% in size
run-conditions: P. falciparum in erythrocytes, SYBR Green DNA, 72 h; series mostly up to 28.7 µM
Results filed as inconclusive are left out. Calls of active or inactive are those of the source. Calls follow the shape of the dose curve; as a rule, active = well fitted inhibition curve with a large enough effect; inconclusive = small, poorly fitted or top-dose-only effect; inactive = flat fitted curve, though single readings scatter.
Possible outcomes: Y = active, N = inactive

>>> category_label("CCC1(c2ccccc2)C(=O)NC(=O)N(C)C1=O (stereo not given)")
"N"
>>> category_label("C=CCN1CCC23c4c5ccc(O)c4O[C@H]2C(=O)CC[C@@]3(O)C1C5 (stereo not given in full)")
"N"
>>> category_label("C[CH2][Hg][S]c1ccccc1C(=O)O")
"Y"
>>> category_label("Oc1cc(Cl)c(Cl)cc1Cl")
"N"
>>> category_label("CC(C)CCON=O")
"N"
>>> category_label("CCCC(=O)OC(C(Cl)(Cl)Cl)P(=O)(OC)OC (stereo not given)")
"N"
>>> category_label("CCC1(c2ccccc2)C(=O)NC(=O)NC1=O")
"N"
>>> category_label("O=c1[nH]cc(N(CCCl)CCCl)c(=O)[nH]1")
"N"
>>> category_label("CCC1(c2ccccc2)C(=O)NC(=O)N(C(=O)c2ccccc2)C1=O (stereo not given)")
"N"
>>> category_label("Clc1ccc(C2(Cn3cncn3)OCCO2)c(Cl)c1")
"N"
>>> category_label("C[N+]1(C)CCCCC1COC(=O)C(O)(c1ccccc1)c1ccccc1 (stereo not given)")
"N"
>>> category_label("O=[N+]([O-])c1ccccc1")
"N"
>>> category_label("CCC(=O)O[C@@](Cc1ccccc1)(c1ccccc1)[C@@H](C)CN(C)C")
"N"
>>> category_label("CC(C)Nc1ccc(Nc2ccccc2)cc1")
"Y"
>>> category_label("O=C1CCCCC1CN1CCCCC1 (stereo not given)")
"N"
>>> category_label("CCOC(=O)c1ccccc1C(=O)OCC")
"N"
>>> category_label("c1csc(C2(N3CCCCC3)CCCCC2)c1")
"N"
>>> category_label("O=c1[nH]c(=O)n(Cl)c(=O)n1Cl")
"N"
>>> category_label("O=Cc1ccco1")
"N"
>>> category_label("C=CCN1CC[C@]23c4c5ccc(O)c4O[C@H]2[C@@H](O)C=C[C@H]3[C@H]1C5")
"N"
>>> category_label("CCCCCCCCOC(=O)c1ccccc1C(=O)OCCCCCCCC")
"N"
>>> category_label("CC1CCC(C(C)C)C(OC(=O)c2ccccc2N)C1 (stereo not given)")
"N"
>>> category_label("CNC(=O)OCC[N+](C)(C)C")
"N"
>>> category_label("C[C@H]1CC[C@@H]2[C@@H](C)[C@H]3[C@H](C[C@H]4[C@@H]5CC=C6CC(O[C@@H]7O[C@H](CO)[C@H](O)[C@H](O[C@@H]8O[C@H](CO)[C@@H](O)[C@H](O)[C@H]8O)[C@H]7O[C@H]7O[C@@H](C)[C@H](O)[C@@H](O)[C@H]7O)CC[C@]6(C)[C@H]5CC[C@]34C)N2C1 (stereo not given in full)")
"N"
>>> category_label("O=C1CC[C@@]2(O)C3Cc4ccc(O)c5c4C2(CCN3CC2CC2)[C@H]1O5 (stereo not given in full)")
"N"
>>> category_label("O=C(NCNC(=O)NC1C(=O)NC(=O)N1CO)NC1C(=O)NC(=O)N1CO (stereo not given)")
"N"
>>> category_label("[N-]=[N+]=CC(=O)OCC(N)C(=O)O (stereo not given)")
"N"
>>> category_label("CC(C)(C)c1cc(O)ccc1O")
"Y"
>>> category_label("CCCCCCCCCC(=O)O[C@H]1CC[C@H]2[C@@H]3CCC4=CC(=O)CC[C@]4(C)[C@H]3CC[C@]12C")
"N"
>>> category_label("Clc1ccccc1Cl")
"N"
>>> category_label("CC(Cc1ccccc1)NC=O (stereo not given)")
"N"
>>> category_label("N#CC1(N2CCCCC2)CCCCC1")
"N"
>>> category_label("COc1ccc2c3c1O[C@H]1C(=O)CC[C@H]4[C@@H](C2)N(C)CC[C@]314")
"N"
>>> category_label("O[C@H]1[C@H]2[C@H](O)CCCN2C[C@H]1O")
"N"
>>> category_label("O=C1CN=C(c2ccccc2)c2cc(Cl)ccc2N1CC1CC1")
"N"
>>> category_label("CC(=O)OO")
"N"
>>> category_label("OC(c1ccccc1)(c1ccccc1)C1CN2CCC1CC2 (stereo not given)")
"N"
>>> category_label("C[C@H]1CCC[C@H](O)CCCCCc2cc(O)cc(O)c2C(=O)O1")
"N"
>>> category_label("S=C=S")
"N"
>>> category_label("C/C(=C\\c1csc(C)n1)[C@@H]1C[C@@H]2O[C@]2(C)CCC[C@H](C)[C@H](O)[C@@H](C)C(=O)C(C)(C)[C@@H](O)CC(=O)O1")
"Y"
>>> category_label("COc1ccc(OC)c(C(O)C(C)N)c1 (stereo not given)")
"N"
>>> category_label("O=C1CCO1")
"N"
>>> category_label("Clc1ccc(Cl)cc1")
"N"
>>> category_label("O=C1C2CC=CCC2C(=O)N1SC(Cl)(Cl)Cl (stereo not given)")
"N"
>>> category_label("ClC(Cl)(Cl)Cl")
"N"
